Reference for the values: the supplement of paper PMC9112550

- Tested on: Escherichia coli TOP10;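 also: peptides expressed intracellularly from a pBAD plasmid library in pooled LB shake-flask culture, induced with 0.3% L-arabinose, DNA abundance read by NGS, three biological replicates, DESeq2 with apeglm shrinkage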
- ASSAY: shrunken log2 fold change of peptide-encoding DNA abundance (4.5 h post-induction vs induction); higher = less antimicrobial activity (less host growth inhibition)
- PARTICULARS: time post-induction: 4.5 h; library: site-saturation at positions 5, 18, 19, 20
Just so you know, the groups by shrunken log2 fold change go like this: low class (below -0.1), middle class (-0.1 to below 0.04), high class (0.04 or more)

Q) For `RRIRPRPPRLPRPRPRPIPGPRP` , which shrunken log2 fold change bin applies?
A) middle class

Q) Lab note: which band did `RRIRFRPPRLPRPRPRPGRKPRP` land in?
A) high class

Q) Each sequence maps to one class by shrunken log2 fold change. Which class for `RRIRIRPPRLPRPRPRPQSMPRP` ?
A) low class

Q) For this sequence, which bin applies? `RRIRSRPPRLPRPRPRPIFCPRP`
A) middle class

Q) Which band does `RRIRSRPPRLPRPRPRPPILPRP` fall in?
A) middle class

Q) Could you place `RRIRYRPPRLPRPRPRPGHKPRP` in its proper category? Many thanks.
A) low class

Q) Assign a category based on measured shrunken log2 fold change for `RRIRCRPPRLPRPRPRPNEEPRP` and give only the class name.
A) middle class

Q) Could you place `RRIRDRPPRLPRPRPRPHPDPRP` in its proper category? Many thanks.
A) low class

Q) Note: place this sequence into its band. Item: `RRIRCRPPRLPRPRPRPYKLPRP`
A) low class

Q) Dear colleague, I would appreciate it if you could identify the bin for `RRIRTRPPRLPRPRPRPHCIPRP` and reply at your convenience.
A) low class

Q) Place this sequence in its band: `RRIRFRPPRLPRPRPRPVVDPRP`
A) low class

Q) // return the class label for `RRIRIRPPRLPRPRPRPGDDPRP`
A) high class

Q) Sort `RRIRFRPPRLPRPRPRPWHDPRP` into one of the categories.
A) middle class

Q) Returns: class label. Input: `RRIRPRPPRLPRPRPRPCIDPRP`
A) low class

Q) Given `RRIRPRPPRLPRPRPRPQFNPRP` , name the class its shrunken log2 fold change places it in.
A) low class

Q) Exam item: assign `RRIRFRPPRLPRPRPRPKERPRP` to the correct category.
A) high class

Q) Determine which band this sequence sits in: `RRIRYRPPRLPRPRPRPMIMPRP`
A) middle class

Q) // bin(item) where item = `RRIRVRPPRLPRPRPRPSYMPRP`
A) low class

Q) Hi, small favor: classify `RRIRHRPPRLPRPRPRPLEEPRP` by its shrunken log2 fold change when you get a moment.
A) high class

Q) Pick a category. Item: `RRIRSRPPRLPRPRPRPWSHPRP`
A) low class

Q) Pick a category. Item: `RRIRSRPPRLPRPRPRPLKAPRP`
A) low class

Q) State the band of `RRIRKRPPRLPRPRPRPLASPRP`
A) high class

Q) For this sequence, which bin applies? `RRIRMRPPRLPRPRPRPLDVPRP`
A) high class

Q) // return the class label for `RRIRIRPPRLPRPRPRPEMDPRP`
A) low class

Q) GET /class?item= `RRIRSRPPRLPRPRPRPVVVPRP`
A) high class

Q) # bin lookup: classify `RRIRLRPPRLPRPRPRPCIAPRP` by its shrunken log2 fold change
A) low class

Q) Which category fits this record: `RRIRMRPPRLPRPRPRPFPWPRP`
A) high class

Q) GET /class?item= `RRIRKRPPRLPRPRPRPRKFPRP`
A) high class

Q) Which category fits this record: `RRIRKRPPRLPRPRPRPDNSPRP`
A) middle class

Q) Just checking, what class would you give `RRIRWRPPRLPRPRPRPLNVPRP` here?
A) middle class

Q) Lab log: `RRIRDRPPRLPRPRPRPVFCPRP` — assign shrunken log2 fold change category
A) middle class

Q) For the record `RRIRIRPPRLPRPRPRPSTLPRP` , report the class its shrunken log2 fold change corresponds to.
A) low class

Q) # bin label for `RRIRMRPPRLPRPRPRPCFYPRP`
A) low class

Q) Returns: class label. Input: `RRIRHRPPRLPRPRPRPVWEPRP`
A) high class

Q) State the class of the sequence shown: `RRIRMRPPRLPRPRPRPKHIPRP`
A) middle class

Q) Assign a bin to `RRIRVRPPRLPRPRPRPFFSPRP`
A) low class

Q) Lab note: which band did `RRIRARPPRLPRPRPRPEGFPRP` land in?
A) high class

Q) Which shrunken log2 fold change band matches `RRIRGRPPRLPRPRPRPWQSPRP` ?
A) high class

Q) Which category fits this record: `RRIRPRPPRLPRPRPRPLFPPRP`
A) middle class

Q) State the band of `RRIRFRPPRLPRPRPRPKDKPRP`
A) low class

Q) Into which category would you place `RRIRQRPPRLPRPRPRPTFIPRP` ?
A) middle class

Q) Could you place `RRIRWRPPRLPRPRPRPVGVPRP` in its proper category? Many thanks.
A) high class

Q) Entry `RRIRRRPPRLPRPRPRPNTCPRP` belongs to which category?
A) middle class

Q) Each sequence maps to one class by shrunken log2 fold change. Which class for `RRIRNRPPRLPRPRPRPKHRPRP` ?
A) middle class

Q) Kindly state the category for this sequence: `RRIRFRPPRLPRPRPRPGSYPRP`
A) middle class

Q) Which of the defined bands does the recorded shrunken log2 fold change of `RRIRHRPPRLPRPRPRPPEMPRP` sit within?
A) high class

Q) # bin label for `RRIRSRPPRLPRPRPRPTRIPRP`
A) middle class

Q) Record `RRIRFRPPRLPRPRPRPKRSPRP` — which class?
A) high class

Q) Which of the defined bands does the recorded shrunken log2 fold change of `RRIRARPPRLPRPRPRPRRSPRP` sit within?
A) high class

Q) Any idea which band `RRIRTRPPRLPRPRPRPQHAPRP` is in?
A) middle class

Q) For the record `RRIRDRPPRLPRPRPRPENQPRP` , report the class its shrunken log2 fold change corresponds to.
A) high class

Q) Using the reported shrunken log2 fold change, which band applies to `RRIRVRPPRLPRPRPRPVYDPRP` ?
A) low class

Q) Hi there! Could you help me figure out the category for `RRIRWRPPRLPRPRPRPHIHPRP` please?
A) low class

Q) Which class does `RRIRYRPPRLPRPRPRPIEFPRP` fall in?
A) middle class

Q) Bin? `RRIRTRPPRLPRPRPRPYRSPRP`
A) high class

Q) The entry to classify is `RRIRDRPPRLPRPRPRPNLCPRP` ; which class holds it?
A) middle class
